method-description: LNP encapsulation efficiency, RiboGreen assay
Assay type: physicochemical
experimental-conditions: mRNA LNPs of Table 18
value-type: Encapsulation efficiency (%)
One number for each entry, in %.

Measured Encapsulation efficiency of ARK003: mRNA: SP + WP_019264904.1 (Methanobrevibacter smithii) + TM/C; SEQ ID NO: 16678 (nucleic acid, listed as DNA) ATGTTCGTGTTCCTCGTGCTCCTGCCCCTCGTCTCCAGCCAGTGCGTGTACCTCATGACCATACCACTGAACGGCACCCCACTCCACGCCTTCCCACTGCCACCCTGGTACATCTGGCTGGGCTTCATCGCAGGACTGATCGCCATCGTCATGGTCACCATAATGCTCTGTTGCATGACCTCCTGCTGTAGCTGCCTGAAAGGCTGTTGCAGCTGCGGGAGCTGCTGCAAATTCGACGAAGACGATAGCGAACCTGTGCTCAAAGGGGTGAAGTTGCATTACACATAGTGA : 40

Switching to the query record.
Measured Encapsulation efficiency of ARK013: mRNA: SP + mru0143 + STOP; SEQ ID NO: 16687 (nucleic acid, listed as DNA, chemistry not fully specified) ATGTTCGTGTTCCTCGTGCTCCTGCCCCTCGTCTCCAGCCAGTGCGTGTACCTCATGACACTCCCCCTGGACGGACTCGGGCACCCCTTCCCCCTGCCATGA : 60

All figures here come from patent US20240189408A1.
